Target: TIM3 protein (Homo sapiens, UniProt Q8TDQ0)
Sequence (Q8TDQ0 22-301): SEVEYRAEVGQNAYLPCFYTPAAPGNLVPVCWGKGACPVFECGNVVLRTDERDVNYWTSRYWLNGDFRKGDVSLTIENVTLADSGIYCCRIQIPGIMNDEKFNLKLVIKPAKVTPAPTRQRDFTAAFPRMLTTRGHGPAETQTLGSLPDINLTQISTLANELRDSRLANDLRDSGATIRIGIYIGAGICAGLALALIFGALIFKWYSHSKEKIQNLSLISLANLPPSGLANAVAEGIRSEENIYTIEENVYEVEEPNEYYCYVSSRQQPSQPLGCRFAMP
Assay: SPR affinity of TIM3-targeting binding peptides to immobilized TIM3 protein
Details: TIM3 sensor chip, dissociation rate
No end group written: not given here.
measurement.name: koff

Example entries begin here.
biopolymer.sequence | koff
SHDTRSPFTWGR [P1307, SHDTRSPFTWGR] | 7.89×10^−3 S^−1
ADFRVMADMSMY [P29, ADFRVMADMSMY] | 7.47×10^−3 S^−1
FTYAHPVSHRWESSVHVDQW [K2] | 1.03×10^−2 S^−1

Query :: Which koff is reported with TIM3 protein (Homo sapiens, UniProt Q8TDQ0) for this entry: HDAFPRPHLFRN [P1301, HDAFPRPHLFRN] ?
Result :: 4.28×10^−3 S^−1

---

# key: entry, value: koff
Biological target: TIM3 protein (Homo sapiens)
Test: SPR affinity of TIM3-targeting binding peptides to immobilized TIM3 protein
Conditions: TIM3 sensor chip, dissociation rate
No end group written: not given here.

biopolymer.sequence | assayed.target | koff
SPFYYSGHQWVPHPRQAASY [K10] | TIM3 protein (Homo sapiens) | 2.30×10^−2 S^−1
ALWPSSSMSSTI [P1303, ALWPSSSMSSTI] | TIM3 protein (Homo sapiens) | 3.08×10^−3 S^−1
GSWNTFRAQPTI [P24, GSWNTFRAQPTI] | TIM3 protein (Homo sapiens) | 1.69×10^−5 S^−1

Query :: Give the measured koff of WQQNNPHLWDVFLGVPRTTE [K5] .
Result :: 1.60×10^−2 S^−1

Query :: Give the measured koff of SQEVFAWTFSPRWTTAPKAL [K3] .
Result :: 1.32×10^−2 S^−1
